Assay: Stability of cell-penetrating peptides in simulated gastric and intestinal fluid (HPLC/MS)
Assay type: in vitro ADME
Details: simulated intestinal fluid, after one hour, 37° C.; read-out: intact CPP
Where a SMILES comes first, the peptide text is derived from it.
Measured Metric: remaining at 1 h, 0.5 mg/mL (%)

INSERT INTO assay_data (compound, experimental_result) VALUES
  ('N=C(N)NCCC[C@@H]1NC(=O)[C@H](CS)NC(=O)[C@H](CCCNC(=N)N)NC(=O)[C@H](CCCNC(=N)N)NC(=O)[C@H](CCCNC(=N)N)NC(=O)[C@H](CCCNC(=N)N)NC(=O)[C@H](CCCNC(=N)N)NC(=O)[C@H](CCCNC(=N)N)NC(=O)[C@H](CCCNC(=N)N)NC(=O)[C@H](CCCNC(=N)N)NC1=O [cyclic CPP] (cyclo(RRRRRRRRRC); ring closure inferred)', 47.3);
